- SYSTEM NAME: LRRK2 (G2019S) (Homo sapiens, UniProt Q5S007, G2019S)
- Sequence (Q5S007 970-2527 G2019S limits assumed): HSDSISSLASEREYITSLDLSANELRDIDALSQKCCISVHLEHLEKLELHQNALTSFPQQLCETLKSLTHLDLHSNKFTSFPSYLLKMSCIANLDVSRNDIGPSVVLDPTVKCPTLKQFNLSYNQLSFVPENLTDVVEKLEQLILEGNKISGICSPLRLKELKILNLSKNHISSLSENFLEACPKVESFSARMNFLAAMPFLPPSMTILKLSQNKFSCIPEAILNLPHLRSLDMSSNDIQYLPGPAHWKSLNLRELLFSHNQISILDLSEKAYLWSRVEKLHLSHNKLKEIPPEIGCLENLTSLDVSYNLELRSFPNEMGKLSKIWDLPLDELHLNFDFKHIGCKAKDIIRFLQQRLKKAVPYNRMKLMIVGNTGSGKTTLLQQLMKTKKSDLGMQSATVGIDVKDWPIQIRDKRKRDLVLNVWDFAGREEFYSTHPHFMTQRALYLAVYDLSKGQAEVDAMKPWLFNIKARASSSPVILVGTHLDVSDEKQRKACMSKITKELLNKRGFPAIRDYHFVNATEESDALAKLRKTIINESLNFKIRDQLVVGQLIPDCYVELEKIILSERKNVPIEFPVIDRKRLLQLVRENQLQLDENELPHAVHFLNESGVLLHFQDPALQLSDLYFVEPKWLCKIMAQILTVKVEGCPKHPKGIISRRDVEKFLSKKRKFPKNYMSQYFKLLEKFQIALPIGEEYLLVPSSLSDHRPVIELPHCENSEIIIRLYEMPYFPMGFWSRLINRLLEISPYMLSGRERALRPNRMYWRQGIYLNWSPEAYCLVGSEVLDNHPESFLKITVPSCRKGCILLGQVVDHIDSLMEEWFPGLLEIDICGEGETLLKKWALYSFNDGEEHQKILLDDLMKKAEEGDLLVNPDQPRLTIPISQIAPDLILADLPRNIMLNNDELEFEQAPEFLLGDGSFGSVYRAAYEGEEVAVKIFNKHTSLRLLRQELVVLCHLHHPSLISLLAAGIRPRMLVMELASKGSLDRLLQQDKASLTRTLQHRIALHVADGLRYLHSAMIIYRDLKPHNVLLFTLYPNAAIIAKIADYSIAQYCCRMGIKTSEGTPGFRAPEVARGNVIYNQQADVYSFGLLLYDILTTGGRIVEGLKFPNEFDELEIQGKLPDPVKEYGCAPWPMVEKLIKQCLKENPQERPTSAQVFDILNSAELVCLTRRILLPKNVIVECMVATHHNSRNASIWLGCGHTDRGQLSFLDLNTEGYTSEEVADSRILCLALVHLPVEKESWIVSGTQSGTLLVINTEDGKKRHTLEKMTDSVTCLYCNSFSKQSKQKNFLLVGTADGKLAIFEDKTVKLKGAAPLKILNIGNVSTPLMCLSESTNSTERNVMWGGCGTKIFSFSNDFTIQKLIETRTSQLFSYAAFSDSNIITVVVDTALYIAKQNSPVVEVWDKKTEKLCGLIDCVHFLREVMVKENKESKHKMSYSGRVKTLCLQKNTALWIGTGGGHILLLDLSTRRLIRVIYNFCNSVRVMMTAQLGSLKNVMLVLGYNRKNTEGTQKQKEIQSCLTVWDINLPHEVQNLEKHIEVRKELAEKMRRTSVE
- ASSAY NOTES: LRRK2 G2019S enzyme inhibition, ADP-Glo kinase assay
- Type: biochemical
- Set-up: purchased SignalChem L10-12GG
- EXPERIMENTAL CONTEXT: ATP 25 μM
REPORTED METRIC: IC50

Examples from the recorded data:
| COMPOUND | REPORTED METRIC | EXPERIMENTAL RESULT |
| --- | --- | --- |
| CCNc1nc(Nc2ccc(S(=O)(=O)N3CCC(N4CCOCC4)CC3)cc2OC)nc2[nH]ccc12 [Example 6, 2,2,2-trifluoroacetate] | IC50 | < 100 nM |
| CCCCNc1nc(Nc2ccc(C(=O)N3CCOCC3)c3c2OCCO3)nc2[nH]cc(C#N)c12 | IC50 | < 100 nM |
| C=CCNc1nc(Nc2ccc(S(=O)(=O)N3CCOCC3)cc2OC)nc2[nH]cc(C#N)c12 | IC50 | < 100 nM |

Now for the compound whose IC50 we want.
Incoming: I have this compound here, "CCNc1nc(Nc2ccc(S(=O)(=O)N3CCOCC3)c3c2OCCO3)nc2[nH]cc(C(F)(F)F)c12" , and I need its recorded IC50.
Outgoing: 101 to 300 nM

---

Observed pIC50 for human GST-DYRK1A (Homo sapiens, UniProt Q13627), reported per entry below.
pIC50: −log10 of the molar value.

| COMPOUND | pIC50 |
| --- | --- |
| CNc1nc(Nc2ccc(C(=O)N3CCC(N4C[C@@H]5C[C@H]4CO5)CC3)c3c2OCC3)nc2[nH]cc(C(F)(F)F)c12 [Example 230] | > 7.00 |
| COc1cc(P2(=O)CCN(C3CC3)CC2)ccc1Nc1nc(NC2CCOCC2)c2c(C(F)(F)F)c[nH]c2n1 [Example 419] | 6.00 to 6.52 |
| CCNc1nc(Nc2ccc(S(=O)(=O)N3CCOCC3)cc2OC)nc2[nH]ccc12 [Example 5, 2,2,2-trifluoroacetate] | 6.00 to 6.52 |

Now consider the entry below.
Incoming: // map CNc1nc(Nc2ccc(S(=O)(=O)N3CCOCC3)cc2OC)nc2[nH]ccc12 [Example 2, 2,2,2-trifluoroacetate] to recorded pIC50 (system: human GST-DYRK1A (Homo sapiens, UniProt Q13627))
Outgoing: 6.00 to 6.52

---

- SYSTEM NAME: TTK (Homo sapiens)
- Sequence (P33981 whole entry): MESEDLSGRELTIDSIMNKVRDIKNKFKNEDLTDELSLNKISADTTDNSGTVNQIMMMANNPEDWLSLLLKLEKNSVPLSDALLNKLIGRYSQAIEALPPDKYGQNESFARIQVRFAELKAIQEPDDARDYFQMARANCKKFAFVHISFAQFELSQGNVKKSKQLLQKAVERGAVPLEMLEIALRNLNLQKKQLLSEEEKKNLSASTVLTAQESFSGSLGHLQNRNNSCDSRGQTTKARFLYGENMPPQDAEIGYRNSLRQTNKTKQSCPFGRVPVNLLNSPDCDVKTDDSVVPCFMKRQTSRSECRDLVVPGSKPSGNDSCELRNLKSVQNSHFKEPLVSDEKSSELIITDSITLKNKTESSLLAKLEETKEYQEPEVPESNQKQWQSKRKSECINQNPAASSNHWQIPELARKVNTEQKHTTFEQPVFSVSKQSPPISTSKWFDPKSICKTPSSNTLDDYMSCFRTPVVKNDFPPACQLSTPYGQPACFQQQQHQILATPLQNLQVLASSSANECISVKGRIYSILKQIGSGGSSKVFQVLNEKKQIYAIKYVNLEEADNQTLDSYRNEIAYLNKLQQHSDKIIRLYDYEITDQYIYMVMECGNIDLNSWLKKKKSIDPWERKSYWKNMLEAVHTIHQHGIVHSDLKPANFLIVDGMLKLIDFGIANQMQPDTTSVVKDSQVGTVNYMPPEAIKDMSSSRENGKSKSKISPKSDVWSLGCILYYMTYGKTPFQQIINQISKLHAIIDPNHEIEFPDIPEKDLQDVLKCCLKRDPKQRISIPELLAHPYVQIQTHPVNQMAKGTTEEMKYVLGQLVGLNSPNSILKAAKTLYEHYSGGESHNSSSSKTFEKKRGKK
- ASSAY NOTES: ScanMAX Kinase analysis panel, TTK
- Assay type: binding
- Set-up: purchased DiscoverX Corp. (commissioned ScanMAX panel service)
- EXPERIMENTAL CONTEXT: 1 μM in DMSO; <35% considered inhibitory; read-out: percent control (% control), TTK
REPORTED METRIC: remaining binding at 1 µM (%)

Known results for compounds:
| COMPOUND | SYSTEM NAME | remaining binding at 1 µM, % |
| --- | --- | --- |
| CNc1nc(Nc2ccc(S(=O)(=O)N3CCC(N4CCOCC4)CC3)cc2OC)nc2[nH]cc(C(F)(F)F)c12 [Example 157, 2,2,2-trifluoroacetate] | TTK (Homo sapiens) | 4 |
| O=C(c1ccc(Nc2nc(C3CC3)c3c(C(F)(F)F)c[nH]c3n2)c2c1OCCO2)N1CCC(N2CCOCC2)CC1 | TTK (Homo sapiens) | 2.9 |
| CCNc1nc(Nc2ccc(S(=O)(=O)N3CCC(N4CCOCC4)CC3)cc2OC)nc2[nH]cc(C(F)(F)F)c12 [Example 158, 2,2,2-trifluoroacetate] | TTK (Homo sapiens) | 2.6 |

I: CNc1nc(Nc2ccc(C(=O)N3CCC(N4CCOCC4)CC3)c3c2OCCO3)nc2[nH]cc(C(F)(F)F)c12
II: CCCNc1nc(Nc2ccc(S(=O)(=O)N3CCC(N4CCOCC4)CC3)cc2OC)nc2[nH]cc(C(F)(F)F)c12
Incoming: Could you please tell me which of these two has the higher remaining binding at 1 µM: I or II ? Respond using the label that marks the chosen record.
Outgoing: II
(II: 4.2%, I: 2.9%)
